Source listed as ChEMBL document CHEMBL1138695.

Tested on: Escherichia coli
Test: Antibacterial activity against Escherichia coli NCTC 10418
Format: functional
measure-name: log10(MIC) (log10 of the value in µg/mL)
Record value = log10 of MIC given in µg/mL.

molecule	measure-name	result-value
Cc1cn(C2C=CC(COC(=O)CNC(=O)c3ccncn3)O2)c(=O)[nH]c1=O (stereo unspecified)	log10(MIC)	3.10
CCn1cc(C(=O)O)c(=O)c2cc(F)c(N3CCN(CC(=O)OCC4C=CC(n5cc(C)c(=O)[nH]c5=O)O4)CC3)cc21 (stereo unspecified)	log10(MIC)	0.09
O=C(O)c1cn(C2CC2)c2cc(N3CCNCC3)c(F)cc2c1=O	log10(MIC)	-1.72
Cc1cn(C2C=CC(COC(=O)CNNC(=O)c3ccncc3)O2)c(=O)[nH]c1=O (stereo unspecified)	log10(MIC)	2.19
Cc1cn(C2C=CC(COC(=O)CN3CCN(c4cc5c(cc4F)c(=O)c(C(=O)O)cn5C4CC4)CC3)O2)c(=O)[nH]c1=O (stereo unspecified)	log10(MIC)	-0.52

Field: next molecule
Task item: What log10(MIC) appears in the records for this molecule with Escherichia coli? CCn1cc(C(=O)O)c(=O)c2cc(F)c(N3CCNCC3)cc21
Reply: -1.42

====

Recorded log10 of MIC values for a group of compounds are listed next.
Tested on: Shigella sonnei
Test: Antibacterial activity against Shigella sonnei
Type: functional
Record value = log10 of MIC given in µg/mL.

compound	log10 of MIC
CCn1cc(C(=O)O)c(=O)c2cc(F)c(N3CCN(CC(=O)OCC4C=CC(n5cc(C)c(=O)[nH]c5=O)O4)CC3)cc21 (stereo unspecified)	0.99
O=C(O)c1cn(C2CC2)c2cc(N3CCNCC3)c(F)cc2c1=O	-2.02
CCn1cc(C(=O)O)c(=O)c2cc(F)c(N3CCNCC3)cc21	-1.42

Task item: Reported log10 of MIC, compound Cc1cn(C2C=CC(COC(=O)CNNC(=O)c3ccncc3)O2)c(=O)[nH]c1=O (stereo unspecified) : ____
Reply: 2.19

Task item: Reported log10 of MIC, compound Cc1cn(C2C=CC(COC(=O)CNC(=O)c3ccncn3)O2)c(=O)[nH]c1=O (stereo unspecified) : ____
Reply: 2.49

Task item: Reported log10 of MIC, compound Cc1cn(C2C=CC(COC(=O)CN3CCN(c4cc5c(cc4F)c(=O)c(C(=O)O)cn5C4CC4)CC3)O2)c(=O)[nH]c1=O (stereo unspecified) : ____
Reply: 0.69

====

Recorded log10 of MIC values for a group of compounds are listed next.
System: Vibrio fluvialis
Experiment: Antibacterial activity against Vibrio fluvialis
Assay type: functional
Record value = log10 of MIC given in µg/mL.

compound	log10 of MIC
CCn1cc(C(=O)O)c(=O)c2cc(F)c(N3CCN(CC(=O)OCC4C=CC(n5cc(C)c(=O)[nH]c5=O)O4)CC3)cc21 (stereo unspecified)	0.99
Cc1cn(C2C=CC(COC(=O)CNC(=O)c3ccncn3)O2)c(=O)[nH]c1=O (stereo unspecified)	3.10
Cc1cn(C2C=CC(COC(=O)CNNC(=O)c3ccncc3)O2)c(=O)[nH]c1=O (stereo unspecified)	3.10
Cc1cn(C2C=CC(COC(=O)CN3CCN(c4cc5c(cc4F)c(=O)c(C(=O)O)cn5C4CC4)CC3)O2)c(=O)[nH]c1=O (stereo unspecified)	-0.21
CCn1cc(C(=O)O)c(=O)c2cc(F)c(N3CCNCC3)cc21	-1.12

Field: next compound
Task item: Reported log10 of MIC, compound O=C(O)c1cn(C2CC2)c2cc(N3CCNCC3)c(F)cc2c1=O : ____
Reply: -2.02
